The measurements presented in this section are drawn from BindingDB's records for doi:10.7270/Q2B856NC.

- assayed.system: Apelin receptor (Homo sapiens)
- Sequence (P35414 whole entry): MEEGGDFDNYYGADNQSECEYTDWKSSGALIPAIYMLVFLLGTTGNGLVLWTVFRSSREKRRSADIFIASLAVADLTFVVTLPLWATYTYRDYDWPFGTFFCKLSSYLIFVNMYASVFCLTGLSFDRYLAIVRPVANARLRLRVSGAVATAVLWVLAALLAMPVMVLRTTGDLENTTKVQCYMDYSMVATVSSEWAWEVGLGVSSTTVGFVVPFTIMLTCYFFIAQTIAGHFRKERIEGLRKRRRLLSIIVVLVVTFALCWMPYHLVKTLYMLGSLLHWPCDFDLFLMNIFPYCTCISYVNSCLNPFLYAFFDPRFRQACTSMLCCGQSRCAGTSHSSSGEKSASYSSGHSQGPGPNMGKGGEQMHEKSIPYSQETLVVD
reported.metric: IC50

Quick one: IC50 of CN1C(=O)C(C2CC(c3ccc(Cl)cc3)N=N2)C(=O)N(C)C1=O (stereo unspecified) ?
7.22 µM
